system: Escherichia coli; assay: Antibacterial activity of modified PET cloth by plate counting method; assay type: cell-based; conditions: E. coli, washing 50 times
Returns one of 1.0 or 0.0; 1.0 when Antibacterial activity, Washing 50 times is >= 90%.

compound | qualitative-label
CCCCCCCC[N+](C)(C)CCOC(=O)Nc1ccc(C(=O)c2ccccc2)cc1.[Br-] [Example 11] | 1.0
CC1(C)C(=O)N(COC(=O)Nc2ccc(C(=O)c3ccccc3)cc2)C(C)(C)N1Cl [Example 26] | 1.0
CC1(C)C(=O)N(CC(O)CNCc2ccc(C(=O)c3ccccc3)cc2)C(=O)N1Cl (stereo not drawn) [Example 28] | 1.0
CCCCCCCCCCCC[N+](C)(C)CCOC(=O)Nc1ccc(C)c(NC(=O)Nc2ccccc2C(=O)c2ccc(Cl)cc2)c1 [Example 18] | 1.0
C[N+](C)(CCC(=O)[O-])c1ccc(C(=O)Oc2ccc(C(=O)c3ccccc3)cc2)cc1 [Example 4] | 0.0
CCCCCCCCCC[N+](C)(C)Cc1ccc(C(=O)c2ccc(C[N+](C)(C)CCCCCCCCCC)cc2)cc1 [Example 15] | 1.0
C[N+](C)(CCCCS(=O)(=O)[O-])CCOc1ccc(C(=O)c2ccccc2)cc1 [Example 2] | 0.0
C[N+](C)(CCS(=O)(=O)[O-])Cc1ccc(C(=O)c2ccccc2)cc1 [Example 6] | 0.0
CC1(C)C(=O)N(Cc2ccc(C(=O)c3ccccc3)cc2)C(=O)N1Cl [Example 27] | 1.0
CCCCCCCC[N+](C)(C)Cc1cn(Cc2ccc(C(=O)c3ccccc3)cc2)nn1 [Example 19] | 1.0

---

test: Hydrophilicity (water contact angle) of modified PET cloth; assay type: physicochemical; details: water contact angle of PET cloth modified with finishing liquid, UV 254 nm 1 minute; untreated PET 92 degrees

compound | u | Contact angel
CC1(C)C(=O)N(Cc2ccc(C(=O)c3ccccc3)cc2)C(=O)N1Cl | degrees | 50
CC1(C)C(=O)N(COC(=O)Nc2ccc(C(=O)c3ccccc3)cc2)C(C)(C)N1Cl | degrees | 45
C[N+](C)(CCS(=O)(=O)[O-])Cc1ccc(C(=O)c2ccccc2)cc1 | degrees | 0
CCCCCCCC[N+](C)(C)CCOC(=O)Nc1ccc(C(=O)c2ccccc2)cc1.[Br-] | degrees | 0
CCCCCCCCCCCC[N+](C)(C)Cc1ccc(C(=O)c2ccccc2)cc1 | degrees | 0
CCOP(=O)([O-])OCC[N+](C)(C)Cc1ccc(C(=O)c2ccccc2)cc1 | degrees | 0
CCCCCCCCCCCC[N+](C)(C)c1ccc(C(=O)Oc2ccc(C(=O)c3ccccc3)cc2)cc1 | degrees | 0
CCCCCCCCCC[N+](C)(C)Cc1ccc2c(c1)C(=O)c1ccccc1C2=O | degrees | 0
CC1(C)C(=O)N(CC(O)CNCc2ccc(C(=O)c3ccccc3)cc2)C(=O)N1Cl (centres unmarked) | degrees | 40
C[N+](C)(CCCS(=O)(=O)[O-])c1ccc(C(=O)c2ccc([N+](C)(C)CCCS(=O)(=O)[O-])cc2)cc1 | degrees | 0
C[N+](C)(CCC(=O)[O-])c1ccc(C(=O)Oc2ccc(C(=O)c3ccccc3)cc2)cc1 | degrees | 0

---

Antibacterial activity, Washing 50 times for assorted compounds
system: Escherichia coli; experiment: Antibacterial activity of modified PET cloth by plate counting method; type: cell-based; conditions: E. coli, washing 50 times
attribute-measured: Antibacterial activity, Washing 50 times

compound | value-measured
CCCCCCCCCCCC[N+](C)(C)Cc1ccc(C(=O)c2ccccc2)cc1 [Example 14] | 91.7%
CCOP(=O)([O-])OCC[N+](C)(C)Cc1ccc(C(=O)c2ccccc2)cc1 [Example 3] | 87.8%
C[N+](C)(CCCS(=O)(=O)[O-])c1ccc(C(=O)c2ccc([N+](C)(C)CCCS(=O)(=O)[O-])cc2)cc1 [Example 1] | 88.5%
CCCCCCCCCCCC[N+](C)(C)c1ccc(C(=O)Oc2ccc(C(=O)c3ccccc3)cc2)cc1 [Example 13] | 91.7%
CCCCCCCCCC[N+](C)(C)Cc1ccc2c(c1)C(=O)c1ccccc1C2=O [Example 16] | 91.7%
